Test: Oral and intravenous bioavailability study of MX via a single bolus administration to Sprague Dawley rats (plasma LC-MS/MS, noncompartmental PK)
Type: in vivo
Settings: both sexes, Sprague-Dawley, rat, in vivo, po, 20 mg/kg
MEASURE_NAME: Tmax

{"columns": ["SAMPLE_SMILES", "READOUT_VALUE"],
 "data": [
  ["CON", "30 to 60 min"]
]}

----------
Test: Oral and intravenous bioavailability study of MX via a single bolus administration to Sprague Dawley rats (plasma LC-MS/MS, noncompartmental PK)
Type: in vivo
Details: male, Sprague-Dawley, rat, in vivo, po, 20 mg/kg
MEASURE_NAME: half-life (h)

{"columns": ["SAMPLE_SMILES", "MEASURE_NAME", "UNITS_OF_MEASURE", "READOUT_VALUE"],
 "data": [
  ["CON", "half-life", "h", 4.2]
]}

----------
Assay: Oral and intravenous bioavailability study of MX via a single bolus administration to Sprague Dawley rats (plasma LC-MS/MS, noncompartmental PK)
Format: in vivo
Conditions: male, Sprague-Dawley, rat, in vivo, iv, 20 mg/kg

{"columns": ["SAMPLE_SMILES", "AUC(0-t) / ng·h/mL"],
 "data": [
  ["CON", 12500]
]}

----------
Assay: Oral and intravenous bioavailability study of MX via a single bolus administration to Sprague Dawley rats (plasma LC-MS/MS, noncompartmental PK)
Assay type: in vivo
Conditions: male, Sprague-Dawley, rat, in vivo, po, 20 mg/kg
MEASURE_NAME: Tmax (h)

{"columns": ["COMPOUND", "UNITS_OF_MEASURE", "READOUT_VALUE"],
 "data": [
  ["CON [MX, Methoxyamine]", "h", 1]
]}

----------
Assay: Oral and intravenous bioavailability study of MX via a single bolus administration to Sprague Dawley rats (plasma LC-MS/MS, noncompartmental PK)
Type: in vivo
Conditions: female, Sprague-Dawley, rat, in vivo, po, 20 mg/kg
Experimental: Oral and Intravenous Bioavailability Study of MX Via a Single Bolus Administration to Sprague Dawley Rats (Non-GLP). […] Plasma Sample for LC-MS/MS Analysis. […] The quantitation results were corrected with the dilution factor. […] After incubation, the supernatant was transferred into a HPLC vial for LC-MS/MS quantitation. […]

{"columns": ["COMPOUND", "half-life"],
 "data": [
  ["CON [MX, Methoxyamine]", "5.7 h"]
]}

----------
Test: Oral and intravenous bioavailability study of MX via a single bolus administration to Sprague Dawley rats (plasma LC-MS/MS, noncompartmental PK)
Type: in vivo
Settings: male, Sprague-Dawley, rat, in vivo, po, 20 mg/kg

{"columns": ["SAMPLE_SMILES", "UNITS_OF_MEASURE", "AUC(0-inf)"],
 "data": [
  ["CON", "ng·h/mL", 13800]
]}

----------
Experiment: Oral and intravenous bioavailability study of MX via a single bolus administration to Sprague Dawley rats (plasma LC-MS/MS, noncompartmental PK)
Format: in vivo
Settings: both sexes, Sprague-Dawley, rat, in vivo
MEASURE_NAME: half-life

{"columns": ["SAMPLE_SMILES", "READOUT_VALUE"],
 "data": [
  ["CON", "4 to 6 h"]
]}

----------
Test: Oral and intravenous bioavailability study of MX via a single bolus administration to Sprague Dawley rats (plasma LC-MS/MS, noncompartmental PK)
Type: in vivo
Details: female, Sprague-Dawley, rat, in vivo, po, 20 mg/kg

{"columns": ["COMPOUND", "Cmax, ng/mL"],
 "data": [
  ["CON [MX, Methoxyamine]", 2960]
]}

----------
Test: Oral and intravenous bioavailability study of MX via a single bolus administration to Sprague Dawley rats (plasma LC-MS/MS, noncompartmental PK)
Type: in vivo
Details: female, Sprague-Dawley, rat, in vivo, iv, 20 mg/kg
MEASURE_NAME: Cmax (ng/mL)

{"columns": ["SAMPLE_SMILES", "UNITS_OF_MEASURE", "READOUT_VALUE"],
 "data": [
  ["CON", "ng/mL", 11000]
]}

----------
Experiment: Oral and intravenous bioavailability study of MX via a single bolus administration to Sprague Dawley rats (plasma LC-MS/MS, noncompartmental PK)
Assay type: in vivo
Details: female, Sprague-Dawley, rat, in vivo, po, 20 mg/kg
MEASURE_NAME: Tmax (min)

{"columns": ["SAMPLE_SMILES", "READOUT_VALUE"],
 "data": [
  ["CON", 30]
]}

----------
Assay: Oral and intravenous bioavailability study of MX via a single bolus administration to Sprague Dawley rats (plasma LC-MS/MS, noncompartmental PK)
Format: in vivo
Details: male, Sprague-Dawley, rat, in vivo, po, 20 mg/kg

{"columns": ["COMPOUND", "UNITS_OF_MEASURE", "AUC(0-t)"],
 "data": [
  ["CON [MX, Methoxyamine]", "ng·h/mL", 13600]
]}

----------
Experiment: Oral and intravenous bioavailability study of MX via a single bolus administration to Sprague Dawley rats (plasma LC-MS/MS, noncompartmental PK)
Format: in vivo
Settings: female, Sprague-Dawley, rat, in vivo, iv, 20 mg/kg
MEASURE_NAME: AUC(0-t)

{"columns": ["COMPOUND", "READOUT_VALUE"],
 "data": [
  ["CON [MX, Methoxyamine]", "13000 ng·h/mL"]
]}

----------
Assay: Oral and intravenous bioavailability study of MX via a single bolus administration to Sprague Dawley rats (plasma LC-MS/MS, noncompartmental PK)
Type: in vivo
Conditions: male, Sprague-Dawley, rat, in vivo, iv, 20 mg/kg
MEASURE_NAME: Cmax (ng/mL)

{"columns": ["COMPOUND", "MEASURE_NAME", "UNITS_OF_MEASURE", "READOUT_VALUE"],
 "data": [
  ["CON [MX, Methoxyamine]", "Cmax", "ng/mL", 15500]
]}

----------
Test: Oral and intravenous bioavailability study of MX via a single bolus administration to Sprague Dawley rats (plasma LC-MS/MS, noncompartmental PK)
Format: in vivo
Conditions: female, Sprague-Dawley, rat, in vivo, iv, 20 mg/kg

{"columns": ["COMPOUND", "half-life [h]"],
 "data": [
  ["CON [MX, Methoxyamine]", 4.6]
]}

----------
Assay: Oral and intravenous bioavailability study of MX via a single bolus administration to Sprague Dawley rats (plasma LC-MS/MS, noncompartmental PK)
Assay type: in vivo
Details: female, Sprague-Dawley, rat, in vivo, po, 20 mg/kg
MEASURE_NAME: AUC(0-inf) (ng·h/mL)

{"columns": ["SAMPLE_SMILES", "READOUT_VALUE"],
 "data": [
  ["CON", 12000]
]}
